The measurements presented in this section are drawn from paper PMC5989537.

The compounds listed here are annotated with their EC50.
system: P. falciparum (3D7); experiment: Anti-plasmodial SYBR green assay, P. falciparum 3D7 blood parasites; format: cell-based, Plasmodium falciparum; conditions: Plasmodium falciparum, 3D7, read-out: P. falciparum (3D7) EC50+/−S.D., 3D7 sensitive strain, SYBR green

Example cases with answers are listed next.
Mol Smiles	EC50
Cc1cccc(C(=O)NCCCCNCCCNC(=O)c2cccc(C)n2)n1	> 10 µM
O=C(NCCCCNCCCNC(=O)c1ccc(Br)s1)c1ccc(Br)s1	> 10 µM
O=C(NCCCCCCCCNC(=O)c1cc(Br)c(Br)[nH]1)c1cc(Br)c(Br)[nH]1	> 10 µM

Exercise: Form field: reported EC50 of O=C(NCCCCNCCCNC(=O)c1cc(Cl)c(Cl)[nH]1)c1cc(Cl)c(Cl)[nH]1
Key: > 10 µM
